MEASURED TARGET: AMPA receptor
EXPERIMENT NOTES: [3H]CNQX binding test (AMPA-receptor binding)
Design: species or system rat
PROTOCOL CONDITIONS: Table 1A parent compounds; AMPA-receptor binding as described for Table 2; read-out: IC50
Procedure: CNQX binding test (Honore et al. Biochem. Pharmacol. 1989, 38: 3207-3212). This test is performed as follows. […] Radioligand binding assay: It is performed using 96-well microtiterplates in a volume of 0.3 mL of 50 mM HEPES/KOH, pH 7.2, 100 μg membrane protein, 5 nM [^3H]-CNQX (NEN) and the compound to be tested. […] Two hundred μL of the scintillation fluid Microscint 20 (Packard) are added and the radioactivity is counted in a Packard Topcount scintillation counter at an efficiency of 40-45%. […]
Recorded log10 of IC50, one value per entry.
Give log10 of IC50, with IC50 taken in nM.

// field: log10 of IC50; key: CC(C)c1cc2[nH]c(=O)n(NS(C)(=O)=O)c(=O)c2cc1-c1ccnn1-c1ccccc1 [Example 49.0] ; value = 3.54

Given item CC(C)n1nccc1-c1cc2c(=O)n(NS(C)(=O)=O)c(=O)[nH]c2cc1CF [Example 33.0] , the value recorded as its log10 of IC50 is 2.64

The reported value for CS(=O)(=O)Nn1c(=O)[nH]c2cc(C(F)(F)F)c(-c3ccnn3C3CCCC3)cc2c1=O [Example 46.0] in terms of log10 of IC50 is 3.08

Reported log10 of IC50 for CC(C)c1cc2[nH]c(=O)n(NS(C)(=O)=O)c(=O)c2cc1-c1ccnn1[C@@H]1CCOC1 [Example 45.0] was 2.75

====

MEASURED TARGET: AMPA receptor
EXPERIMENT NOTES: [3H]CNQX binding test (AMPA-receptor binding)
Set-up: species or system rat
PROTOCOL CONDITIONS: Table 1A parent compounds; AMPA-receptor binding as described for Table 2; read-out: IC50
Listed compounds paired with reported IC50
Your answer should be a plain number; it is taken to be in nM.

Below are worked cases with known answers.
Notebook: CCOC(C)c1cc2c(=O)n(NS(C)(=O)=O)c(=O)[nH]c2cc1CC (stereo not shown) , IC50 read as 1850

Kindly note the recorded IC50 for Cn1nccc1-c1cc2c(=O)n(NS(C)(=O)=O)c(=O)[nH]c2cc1CF , which is 770

# IC50 of CC(C)n1nccc1-c1cc2c(=O)n(NS(C)(=O)=O)c(=O)[nH]c2cc1C(F)F = 110

Further cases:
Lookup result for CCOC(CC)c1cc2c(=O)n(NS(C)(=O)=O)c(=O)[nH]c2cc1C(F)(F)F (stereo not shown) ; measured IC50: 510

For this compound ( COCCn1nccc1-c1cc2c(=O)n(NS(C)(=O)=O)c(=O)[nH]c2cc1C(C)C ), measured IC50 is 320

====

MEASURED TARGET: AMPA receptor
EXPERIMENT NOTES: [3H]CNQX binding test (AMPA-receptor binding)
Set-up: species or system rat
PROTOCOL CONDITIONS: Table 2 parent compounds; rat; read-out: [3H]CNQX IC50 AMPA receptor binding, rat
Procedure: CNQX binding test (Honore et al. Biochem. Pharmacol. 1989, 38: 3207-3212). This test is performed as follows. […] Radioligand binding assay: It is performed using 96-well microtiterplates in a volume of 0.3 mL of 50 mM HEPES/KOH, pH 7.2, 100 μg membrane protein, 5 nM [^3H]-CNQX (NEN) and the compound to be tested. […] Two hundred μL of the scintillation fluid Microscint 20 (Packard) are added and the radioactivity is counted in a Packard Topcount scintillation counter at an efficiency of 40-45%. […]
MEASUREMENT KIND: pIC50
In plain terms, pIC50 is the concentration in mol/L turned into minus its base-10 logarithm.

Answered cases to consult:
Per the records, this compound ( CCC(OC)c1cc2c(=O)n(NS(C)(=O)=O)c(=O)[nH]c2cc1C(F)(F)F (stereo not shown) ) has pIC50 equal to 6.50

Entry CC(C)n1nccc1-c1cc2c(=O)n(NS(C)(=O)=O)c(=O)[nH]c2cc1C(F)(F)F — recorded pIC50 = 7.06

Form: compound = CC(C)c1cc2[nH]c(=O)n(NS(C)(=O)=O)c(=O)c2cc1-c1ccnn1C ; pIC50 = 6.72

# evaluate next
# pIC50 of CS(=O)(=O)Nn1c(=O)[nH]c2cc(C(F)(F)F)c([C@H]3CCCO3)cc2c1=O = 6.80

====

Tested on: OF1 mice
EXPERIMENT NOTES: Maximal electroshock test (MES Test)
Format: in vivo
PROTOCOL CONDITIONS: Mus musculus, po; 50 mg/kg, p.o., pre-treatment time −1 h; read-out: %-Protection
# if measured responders at 50 mg/kg < 60%: Fulfilled  # else: Not fulfilled

A selection of reference data follows.
stdin: Would you kindly verify if responders at 50 mg/kg of CCCOC(=O)N(n1c(=O)[nH]c2cc(C(F)F)c(-c3ccnn3C(C)C)cc2c1=O)S(C)(=O)=O is strictly less than 60%?
stdout: Fulfilled

stdin: hey, is responders at 50 mg/kg for CCCC(=O)N(n1c(=O)[nH]c2cc(C(F)(F)F)c(-n3ccnc3)cc2c1=O)S(C)(=O)=O lower than 60% or not?
stdout: Fulfilled

stdin: In plain terms, does CC(C)C(=O)N(n1c(=O)[nH]c2cc(C(F)(F)F)c(-c3ccnn3C)cc2c1=O)S(C)(=O)=O come in under 60% for responders at 50 mg/kg?
stdout: Not fulfilled

stdin: Here's an entry: CCCCCOC(=O)N(n1c(=O)[nH]c2cc(C(F)(F)F)c(C(CC)OC)cc2c1=O)S(C)(=O)=O (stereo not drawn) . Is its responders at 50 mg/kg below 60%?
stdout: Fulfilled

stdin: I wonder whether CCCCC(=O)N(n1c(=O)[nH]c2cc(C(F)(F)F)c(C(CC)OC)cc2c1=O)S(C)(=O)=O (stereo not drawn) has responders at 50 mg/kg below 60%. Can you tell?
stdout: Not fulfilled

Further cases:
stdin: Consider CC(C)c1cc2[nH]c(=O)n(N(C(=O)CCN3CCOCC3)S(C)(=O)=O)c(=O)c2cc1-c1ccnn1C . Does its responders at 50 mg/kg lie strictly below 60%?
stdout: Not fulfilled

stdin: Determine if CCCC(=O)N(n1c(=O)[nH]c2cc(C(F)(F)F)c(-c3ccnn3C(C)C)cc2c1=O)S(C)(=O)=O shows responders at 50 mg/kg strictly lower than 60%.
stdout: Fulfilled

stdin: # strict comparison: is reported responders at 50 mg/kg < 60%? input = CCC(=O)N(n1c(=O)[nH]c2cc(C(F)(F)F)c(-c3ccnn3C(C)C)cc2c1=O)S(C)(=O)=O
stdout: Fulfilled

stdin: Check if responders at 50 mg/kg falls below 60% for COC(=O)n1c(=O)n(N(C(C)=O)S(C)(=O)=O)c(=O)c2cc(-c3ccnn3C)c(C(C)C)cc21 .
stdout: Not fulfilled

stdin: Dear colleague, could you confirm whether responders at 50 mg/kg of CCC(OC)c1cc2c(=O)n(N(C(=O)OCC(C)C)S(C)(=O)=O)c(=O)[nH]c2cc1C(F)(F)F (stereo not drawn) falls below 60%? Thanks.
stdout: Not fulfilled

stdin: Check if responders at 50 mg/kg falls below 60% for CCCCCCOC(=O)N(n1c(=O)[nH]c2cc(C(C)C)c(-c3ccnn3C)cc2c1=O)S(C)(=O)=O .
stdout: Not fulfilled

stdin: Is responders at 50 mg/kg of Cc1nccn1-c1cc2c(=O)n(NS(C)(=O)=O)c(=O)[nH]c2cc1C(F)(F)F strictly below 60%?
stdout: Fulfilled

stdin: I wonder whether CC(C)c1cc2[nH]c(=O)n(N(C(=O)CN3CCOCC3)S(C)(=O)=O)c(=O)c2cc1-c1ccnn1C has responders at 50 mg/kg below 60%. Can you tell?
stdout: Not fulfilled

====

Quick reference: responders at 50 mg/kg of the listed items.
Tested on: OF1 mice
EXPERIMENT NOTES: Maximal electroshock test (MES Test)
Format: in vivo
PROTOCOL CONDITIONS: Mus musculus, po; 50 mg/kg, p.o., pre-treatment time −1 h; read-out: %-Protection
Numbers only; they are read as %.

According to the records, this compound CS(=O)(=O)Nn1c(=O)[nH]c2cc(C(F)(F)F)c([C@H]3CCCO3)cc2c1=O displays responders at 50 mg/kg of 100

Per the record, CCc1cc2[nH]c(=O)n(N(C(=O)OC)S(C)(=O)=O)c(=O)c2cc1-c1ccnn1C has responders at 50 mg/kg of 100

responders at 50 mg/kg recorded for this compound, CCCCCC(=O)N(n1c(=O)[nH]c2cc(C(F)(F)F)c([C@H]3CCCO3)cc2c1=O)S(C)(=O)=O , is 60

Just so you know, measured responders at 50 mg/kg for CCCC(=O)N(n1c(=O)[nH]c2cc(C(F)F)c(-c3ccnn3C(C)C)cc2c1=O)S(C)(=O)=O came out at 40

response.value for CCCCCCOC(=O)N(n1c(=O)[nH]c2cc(C(F)(F)F)c(C(CC)OC)cc2c1=O)S(C)(=O)=O (stereo not shown) (field: responders at 50 mg/kg) = 60

---
Entry CC(=O)OCC(=O)N(n1c(=O)[nH]c2cc(C(F)(F)F)c(-n3cccc3)cc2c1=O)S(C)(=O)=O ; responders at 50 mg/kg = 40

Looking up CCCC(=O)N(n1c(=O)[nH]c2cc(C(F)(F)F)c(C(O)CC)cc2c1=O)S(C)(=O)=O (stereo not shown) , I see its responders at 50 mg/kg listed as 40
